# ED50 listing for each entry below
System: generalized trembling caused by dl-5-hydroxytryptophane
Experiment: Test A: potentiation in mice of generalized trembling caused by dl-5-hydroxytryptophane
Format: in vivo
Details: Mus musculus, po, mice, potentiation of trembling by dl-5-hydroxytryptophane 200 mg/kg interperitoneal, read-out: Test A ED 50
Give the number; mg/kg is assumed, so skip it.

Worked cases, answers included:
>  <Compound>
COCC1CN(c2ccc(OCCN3CCOCC3)cc2)C(=O)O1 (centres unmarked) [compound 181]

>  <Units Of Measure>
mg/kg

>  <ED50>
4

$$$$
>  <Compound>
NCC1CN(c2ccc(OCc3cc(Cl)cc([N+](=O)[O-])c3)cc2)C(=O)O1 (centres unmarked) [compound 207]

>  <Units Of Measure>
mg/kg

>  <ED50>
9.1

$$$$

We now examine a further compound.
Request: Which ED50 value is on record for CCCCOc1ccc(N2CC(CN)OC2=O)cc1 (centres unmarked) [compound 170] ?
Response: 12.5

###

# ED50 listing for each entry below
Test system: generalized trembling caused by dl-5-hydroxytryptophane
Assay: Test A: potentiation in mice of generalized trembling caused by dl-5-hydroxytryptophane
Format: in vivo
Conditions: Mus musculus, po, mice, potentiation of trembling by dl-5-hydroxytryptophane 200 mg/kg interperitoneal, read-out: Test A ED 50
Give the number; mg/kg is assumed, so skip it.

Worked cases, answers included:
>  <Compound>
O=C(OCC1CN(c2ccc(OCC3CCCC3)cc2)C(=O)O1)C1CCCCC1 (centres unmarked)

>  <Recorded Result>
4

$$$$
>  <Compound>
CC(C)CCOc1ccc(N2CC(CN)OC2=O)cc1 (centres unmarked)

>  <Recorded Result>
3

$$$$
>  <Compound>
CNCC1CN(c2ccc(OCCC(C)C)cc2)C(=O)O1 (centres unmarked)

>  <Recorded Result>
6.2

$$$$
>  <Compound>
COCC1CN(c2ccc(OCc3ccc([N+](=O)[O-])cc3)cc2)C(=O)O1 (centres unmarked)

>  <Recorded Result>
6.8

$$$$
>  <Compound>
CCNCC1CN(c2ccc(OCc3cccc([N+](=O)[O-])c3)cc2)C(=O)O1 (centres unmarked)

>  <Recorded Result>
5.2

$$$$

Request: Which ED50 value is on record for CCCOCC1CN(c2ccc(OCC3CCCC3)cc2)C(=O)O1 (centres unmarked) ?
Response: 12.5

Request: Which ED50 value is on record for OCC1CN(c2ccc(OCc3cccc(C(F)(F)F)c3)cc2)C(=S)O1 (centres unmarked) ?
Response: 12.5

Request: Which ED50 value is on record for OCC1CN(c2ccc(OCc3cccc(F)c3)cc2)C(=S)O1 (centres unmarked) ?
Response: 8

Request: Which ED50 value is on record for OCC1CN(c2ccc(OCc3ccc(Cl)cc3)cc2)C(=S)O1 (centres unmarked) ?
Response: 50

Request: Which ED50 value is on record for CCCCC(=O)OCC1CN(c2ccc(OCc3cccc([N+](=O)[O-])c3)cc2)C(=O)O1 (centres unmarked) ?
Response: 1.75

Request: Which ED50 value is on record for CCCCOc1ccc(N2CC(COC3CCCCC3)OC2=O)cc1 (centres unmarked) ?
Response: 50

Request: Which ED50 value is on record for CCC(=O)OCC1CN(c2ccc(OCCC#N)cc2)C(=O)O1 (centres unmarked) ?
Response: 2.3

Request: Which ED50 value is on record for CCOCC1CN(c2ccc(OCC3CCCC3)cc2)C(=O)O1 (centres unmarked) ?
Response: 5

Request: Which ED50 value is on record for COCOCC1CN(c2ccc(OCc3cccc([N+](=O)[O-])c3)cc2)C(=O)O1 (centres unmarked) ?
Response: 0.6

Request: Which ED50 value is on record for CC(=O)OCC1CN(c2ccc(OCc3cccc(F)c3)cc2)C(=O)O1 (centres unmarked) ?
Response: 6.2

Request: Which ED50 value is on record for COCC1CN(c2ccc(OCC3CCC3)cc2)C(=O)O1 (centres unmarked) ?
Response: 1.9

Request: Which ED50 value is on record for CCCCOc1ccc(N2CC(COC)OC2=O)cc1 (centres unmarked) ?
Response: 1.5

###

Tested on: generalized trembling caused by dl-5-hydroxytryptophane
Experiment: Test A: potentiation in mice of generalized trembling caused by dl-5-hydroxytryptophane
Type: in vivo
Settings: Mus musculus, po, mice, potentiation of trembling by dl-5-hydroxytryptophane 200 mg/kg interperitoneal, read-out: Test A ED 50
Experimental: Test A: Potentiation in mice of generalized trembling caused by an interperitoneal injection (200 mg/kg) of dl-5-hydroxytryptophane, following the protocol described by C. GOURET and G. RAYNAUD in J. Pharmacol. (Paris), (1974), 5, 231.
Simple rule here: ED50 less than 4 mg/kg is True, otherwise False.

>  <Compound>
CC(=O)OCC1CN(c2ccc(OCCC#N)cc2)C(=O)O1 (stereo not drawn)

>  <Class Label>
True

$$$$
>  <Compound>
CC(C)C(=O)OCC1CN(c2ccc(OCCC#N)cc2)C(=O)O1 (stereo not drawn)

>  <Class Label>
False

$$$$
>  <Compound>
O=[N+]([O-])c1cc(Cl)cc(COc2ccc(N3CC(CO)OC3=S)cc2)c1 (stereo not drawn)

>  <Class Label>
True

$$$$
>  <Compound>
COCC1CN(c2ccc(OCc3cc(C#N)cc([N+](=O)[O-])c3)cc2)C(=S)O1 (stereo not drawn)

>  <Class Label>
False

$$$$

// next entry
Request: Input COCC1CN(c2ccc(OCc3cc(Cl)cc(Cl)c3)cc2)C(=O)O1 (stereo not drawn) ; condition: ED50 strictly below 4 mg/kg. Does it hold?
Response: True
